B1: TNXB (parent)
chain: FSEIRETSAKVNWMPPPSRADSFK

# Variants of: B1
# test_details: protein stability index of a GFP-peptide fusion (GPS, HEK-293T) (PSI 1-6); higher = more stable;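 note: lentivirally expressed fusions sorted by FACS into six bins by GFP to DsRed ratio, PSI derived from sequencing read proportions per bin multiplied by bin number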
# test_context: c terminus: a fixed tail appended
parameter_measured: protein stability index
Answer with a bare number; do not write a unit.

Determine its reported protein stability index: FSEIRETSGKVNWMPPPSRADSFK [A9G]
3.04

Please report protein stability index for the following variant: FSEIRTTSAKVNWMPPPSRADSFK [E6T]
2.95

Determine from records and report protein stability index for FSEIREVSAKVNWMPPPSRADSFK [T7V]
2.97

Provide only the value of recorded protein stability index for FSEIRETKAKVNWMPPPSRADSFK [S8K]
2.95

Consider the variant FSEIRETSAKVNWMPPPSRYDSFK [A20Y] and give its recorded protein stability index.
2.93

All figures here come from the supplement of paper PMC10567573.
